tested on: Wnt5a (protein binding on small-molecule microarray); test: Wnt5a binders on small-molecule microarray, primary screen, biophysical, 635/667 nm fluorescence (AID 1142); settings: 635 nm fluorescence, higher = more signal;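 note: fluorescence read at 667 nm with signal to noise per printed feature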
Given measured composite z-score, output yes if it is greater than or equal to 0.2 and no if not.

| molecule | tested system | category label |
| --- | --- | --- |
| CCOc1cc(C(O)C2C=CC3C(=O)N(c4ccccc4)C(=O)C3N2Nc2ccc(C#N)cc2)ccc1O (stereo not drawn) | Wnt5a (protein binding on small-molecule microarray) | no |
| CCCCCCc1nc(C2CC2)cc2c1[Si](C(C)C)(C(C)C)OC2 | Wnt5a (protein binding on small-molecule microarray) | no |
| COC(=O)[C@@]1(Cc2ccccc2)[C@@H]2C(=CC(=O)[C@H]2CC(=O)C(=O)N(C)C)CN1C(=O)c1ccccc1 | Wnt5a (protein binding on small-molecule microarray) | no |
| CCOC(=O)C[C@H]1[C@H](OC(=O)c2ccccc2-c2ccccc2)[C@@H](NC(=O)C2CCCCC2)c2cc(OCCCO)ccc2N1C(=O)Cc1ccc(OC)cc1 | Wnt5a (protein binding on small-molecule microarray) | no |
| CCOC(=O)C[C@H]1[C@H](OC(=O)c2ccc(C(=O)c3ccccc3)cc2)[C@@H](NC(=O)Cc2ccc(OC)cc2)c2cc(OCCCO)ccc2N1C(=O)c1ccccc1 | Wnt5a (protein binding on small-molecule microarray) | yes |
| O=C1NC(=O)C2C1C=CC(C(O)c1cccc3ccccc13)N2Nc1ccc(Cl)cc1Cl (stereo not drawn) | Wnt5a (protein binding on small-molecule microarray) | yes |
| CN1C(=O)C2C=CC(C(O)c3cccc4ccccc34)N(N3CCCCC3)C2C1=O (stereo not drawn) | Wnt5a (protein binding on small-molecule microarray) | no |
| O=C1OCCC=C[C@H]2OC34C=CCN(Cn5nnc6ccccc65)C(=O)[C@H]3N(CCCCCCO)C(=O)[C@@H]4C12 (stereo partly drawn) | Wnt5a (protein binding on small-molecule microarray) | no |
